pIC50: −log10 of the molar value.
Literature pIC50 values, system: IRAK4 (Homo sapiens (Human), UniProt Q9NWZ3).
Classification field: YES = pIC50 at or over 9; NO = pIC50 under 9.

compound: NC(=O)Cc1ccc(Nc2ncc(-c3nc4ccccc4s3)c(N[C@@H]3C[C@H](CO)[C@@H](O)[C@H]3O)n2)cc1
tgt: IRAK4 (Homo sapiens (Human), UniProt Q9NWZ3)
class_name: NO
--
compound: CC(C)(O)CCc1cn(-c2cnc(-n3ncc4cc(C#N)cnc43)cc2N[C@H]2CC[C@@H](F)CC2)nn1
tgt: IRAK4 (Homo sapiens (Human), UniProt Q9NWZ3)
class_name: NO
--
compound: CC(=O)O[C@H]1CC[C@H](NC(=O)c2cnc3sc(-c4cccnc4)nc3c2NC(C)C)CC1
tgt: IRAK4 (Homo sapiens (Human), UniProt Q9NWZ3)
class_name: NO
--
compound: Cc1cc(Nc2ncc(-c3nc4cnccc4s3)c(N[C@@H]3CC(C(C)(C)O)[C@@H](O)[C@H]3O)n2)cc(C)n1 (stereo in doubt)
tgt: IRAK4 (Homo sapiens (Human), UniProt Q9NWZ3)
class_name: YES

Now turn to the next compound.
# input Given the entry O=C1CC[C@@H](COc2nccc3cc4c(=O)[nH]cc(C(F)(F)F)c4cc23)N1 , answer whether its pIC50 meets or surpasses 9.
# output NO
